tested on: KM20L2 colon; experiment: NCI tumour cell line growth inhibition, 48 h
endpoint: TGI

compound: CC(=O)c1ccc(NC(=O)/C(Cc2ccccn2)=N/NC(=O)C[N+](C)(C)C)cc1
TGI: > 100 µM

# input compound: COc1cc2c(c(OC)c1OC)-c1ccc(SC)c(=O)cc1C(CC(=O)Oc1ccc([N+](=O)[O-])cc1)C2 (centres undefined) ; wanted: its TGI 0.465 µM

Suppose we examine the compound Cc1cc(NS(=O)(=O)c2ccc(NC(=O)c3cccc4c(=O)c5ccccc5[nH]c34)cc2)no1 ; what TGI value has been reported? > 100 µM

What measured TGI goes with CC(C(=O)O)c1cnn(-c2ccccc2)c1-n1cccc1 (centres undefined) ? > 100 µM

Given the compound CCCCCCCCCCCCCCCCOP(=O)(O)Oc1ccc(/C=C\c2ccc(OP(=O)(O)OCCCCCCCCCCCCCCCC)cc2)cc1 , what is its reported TGI? > 100 µM

Please report the recorded TGI for CN(C)C(=S)SN(C)C(=O)Nc1ccccc1 . > 100 µM

Any idea what TGI was measured for CN(C)/N=C(\CCN1CCCC1)CC(c1ccccc1)c1c(O)c2ccccc2oc1=O (centres undefined) ? > 100 µM

Quick check: TGI of O=S(O)CCCCSSCCCCSSCCCCS(=O)O ? > 100 µM

// data source = PubChem BioAssay (NCI)
